assay: Selectivity index, ratio of IC50 for rat L6 cells to IC50 for Leishmania donovani MHOM/SD/62/1S-CL2D axenic amastigotes; assay type: toxicity, cell-based; settings: read-out: Ratio IC50
reportedProperty: selectivity ratio

CCOC(=O)c1cc(C2=NCCN2)ccc1OCCCCCOc1ccc(C2=NCCN2)cc1C(=O)OCC	> 10
CC(C)NC(=N)c1cccc(OCCCOc2cccc(C(=N)NC(C)C)c2)c1	> 11
N=C(N)c1ccc(OCCCOc2ccc(C(=O)O)cc2)cc1	< 2

###

Measured selectivity ratio, listed per entry for reference.
assay: Selectivity index, ratio of IC50 for rat L6 cells to IC50 for chloroquine-resistant Plasmodium falciparum K1; format: toxicity, cell-based; settings: read-out: Ratio IC50
reportedProperty: selectivity ratio

CNC(=N)c1ccc(OCCCOc2ccc(C(=N)NC)cc2OC)c(OC)c1	276
N=C(N)c1ccc(OCCCOc2ccc(C(=N)N)cc2[N+](=O)[O-])c([N+](=O)[O-])c1	651
Cl.Cl.N=C(N)c1ccc(OCCCOc2ccc(C3=NCCN3)cc2)cc1	3980
Cl.Cl.c1cc(C2=NCCN2)ccc1OCCCOc1ccc(C2=NCCN2)cc1	7530

###

system: Trypanosoma brucei rhodesiense; experiment: Antitrypanosomal activity against Trypanosoma brucei rhodesiense STIB900 trypomastigotes infected in NMRI mouse assessed as mouse survival at 5 mg/kg, ip administered from day 3 to day 6 postinfection; type: functional; conditions: route intraperitoneal
reportedProperty: Survival

Cl.N=C(N)c1ccc(NCCCCCNc2ccc(C(=N)N)cc2)cc1	>29.3 days
Cl.Cl.c1cc(C2=NCCN2)ccc1NCCCCCNc1ccc(C2=NCCN2)cc1	>60 days
CC(C)NC(=N)c1ccc(OCCCCCOc2ccc(C(=N)NC(C)C)cc2)cc1.Cl.Cl	>41.3 days
Cl.Cl.N=C(N)c1ccc(OCCCCCCOc2ccc(C(=N)N)cc2)cc1	>44.3 days

###

assay: Selectivity index, ratio of IC50 for rat L6 cells to IC50 for Leishmania donovani MHOM/SD/62/1S-CL2D axenic amastigotes; type: toxicity, cell-based; conditions: read-out: Ratio IC50
Reported selectivity ratio values for the following compounds.
reportedProperty: selectivity ratio

CNC(=N)c1ccc(OCCCOc2ccc(C(=N)NC)cc2OC)c(OC)c1	7
Cl.Cl.N=C(N)c1cccc(OCCCCCCOc2cccc(C(=N)N)c2)c1	7
N=C(N)c1ccc(OCCCCOc2ccc(C(=N)N)cc2[N+](=O)[O-])c([N+](=O)[O-])c1	3
COc1cc(C(=N)N)ccc1OCCCCCOc1ccc(C(=N)N)cc1OC.Cl.Cl	7
Cl.Cl.N=C(N)c1cccc(OCCCOc2cccc(C(=N)N)c2)c1	3

###

test system: L6; experiment: Cytotoxicity against rat L6 cells after 70 hrs by alamar blue assay; format: cell-based; conditions: L6, 70 h
reportedProperty: IC50

c1cc(-c2nnn[nH]2)ccc1OCCCCCOc1ccc(-c2nnn[nH]2)cc1	> 229 µM
N=C(N)c1ccc(OCCCCCOc2ccc(C(=N)N)c(O)c2)cc1O	> 195 µM
CN1CCN=C1c1ccc(OCCCCCOc2ccc(C3=NCCN3C)cc2)cc1	> 176 µM
Cl.Cl.N=C(N)c1ccc(OCCCCCOc2ccc(C(=N)N)cc2C(N)=O)c(C(N)=O)c1	> 168 µM
CCOC(=O)c1cc(C(=N)N)ccc1OCCCCCOc1ccc(C(=N)N)cc1C(=O)OCC	> 152 µM

Every entry's value here was drawn from ChEMBL document CHEMBL1153346.
